# Test system: MDBK cells
# PROCEDURE_DETAILS: Rotenone-sensitive oxygen consumption rate in intact MDBK cells
# Assay type: cell-based, Bos taurus
# Design: key: % of OCR recorded immediately before biguanide addition
# CONDITION_NOTES: MDBK intact cells; average of replicates; biguanide at IC50/10
READOUT: rotenone sensitive OCR after 40 mins of biguanide exposure, average
In your answer, state the number alone without any accompanying words.

The compound CC(C)N=C(N)N=C(N)N [compound 4] , when measured on MDBK cells, yielded rotenone sensitive OCR after 40 mins of biguanide exposure, average of 95.36

The compound CC(C)N=C(N)N=C(N)NC(C)C [compound 5] , when measured on MDBK cells, yielded rotenone sensitive OCR after 40 mins of biguanide exposure, average of 99.64

The compound NC(N)=NC(N)=NCCc1ccc(Cl)cc1 [compound 1] , when measured on MDBK cells, yielded rotenone sensitive OCR after 40 mins of biguanide exposure, average of 98.58

The compound NC(N)=NC(N)=NCc1ccccc1 [compound 3, 2-benzyl-1-(diaminomethylidene)guanidine] , when measured on MDBK cells, yielded rotenone sensitive OCR after 40 mins of biguanide exposure, average of 90.06

The compound N=C(N)NC(N)=Nc1ccccc1 [compound 2, phenyl biguanide] , when measured on MDBK cells, yielded rotenone sensitive OCR after 40 mins of biguanide exposure, average of 100.73

The compound [H]/N=C(\N/C(=N/[H])Nc1ccc(Cl)cc1)NC(C)C [proguanil, reference compound] , when measured on MDBK cells, yielded rotenone sensitive OCR after 40 mins of biguanide exposure, average of 98.65

The compound [H]/N=C(/N)N/C(=N/[H])NCCc1ccccc1 [phenformin, reference compound] , when measured on MDBK cells, yielded rotenone sensitive OCR after 40 mins of biguanide exposure, average of 96.91
